All figures here come from ChEMBL document CHEMBL4699470.

# System: L5178Y
# experimental_protocol: Cytotoxicity against mouse L5178Y cells assessed as reduction in cell viability by MTT assay
# Type: functional, cell-based
readout: IC50 (µM)
State just the number; it will be interpreted in µM.

1) CCC(=O)c1ccc(OCCCN2CCN(c3cnccn3)CC2)cc1 | 47.5
2) CC(C)(C)c1ccc(OCCCCN2CCN(c3cccnc3)CC2)cc1 | 11.7
3) CSc1ccc2c(c1)N(CCC1CCCCN1C)c1ccccc1S2 (stereo unspecified) | 12.7

### Prompt Requested read-out: IC50. Entry: `CCC(C)(C)c1ccc(OCCCCN2CCN(c3ncccn3)CC2)cc1`
### Response 46.4

### Prompt Entry `CCC(C)(C)c1ccc(OCCCCN2CCN(c3cnccn3)CC2)cc1` has what IC50?
### Response 12.6

### Prompt Endpoint output: IC50 of `CC(=O)c1ccc(OCCCCN2CCN(c3cccnc3)CC2)cc1` . Value?
### Response 69

### Prompt Given the compound `CC(C)(C)c1ccc(OCCCCN2CCN(c3cnccn3)CC2)cc1` , what is its reported IC50?
### Response 18.3

### Prompt Suppose we examine the compound `CC(C)(C)c1ccc(OCCCCN2CCN(c3ccccn3)CC2)cc1` ; what IC50 value has been reported?
### Response 15.1

###

Listing of recorded Ratio by entry.
# tgt: ATP-dependent translocase ABCB1 (Homo sapiens, UniProt P08183)
# Sequence (P08183 whole entry): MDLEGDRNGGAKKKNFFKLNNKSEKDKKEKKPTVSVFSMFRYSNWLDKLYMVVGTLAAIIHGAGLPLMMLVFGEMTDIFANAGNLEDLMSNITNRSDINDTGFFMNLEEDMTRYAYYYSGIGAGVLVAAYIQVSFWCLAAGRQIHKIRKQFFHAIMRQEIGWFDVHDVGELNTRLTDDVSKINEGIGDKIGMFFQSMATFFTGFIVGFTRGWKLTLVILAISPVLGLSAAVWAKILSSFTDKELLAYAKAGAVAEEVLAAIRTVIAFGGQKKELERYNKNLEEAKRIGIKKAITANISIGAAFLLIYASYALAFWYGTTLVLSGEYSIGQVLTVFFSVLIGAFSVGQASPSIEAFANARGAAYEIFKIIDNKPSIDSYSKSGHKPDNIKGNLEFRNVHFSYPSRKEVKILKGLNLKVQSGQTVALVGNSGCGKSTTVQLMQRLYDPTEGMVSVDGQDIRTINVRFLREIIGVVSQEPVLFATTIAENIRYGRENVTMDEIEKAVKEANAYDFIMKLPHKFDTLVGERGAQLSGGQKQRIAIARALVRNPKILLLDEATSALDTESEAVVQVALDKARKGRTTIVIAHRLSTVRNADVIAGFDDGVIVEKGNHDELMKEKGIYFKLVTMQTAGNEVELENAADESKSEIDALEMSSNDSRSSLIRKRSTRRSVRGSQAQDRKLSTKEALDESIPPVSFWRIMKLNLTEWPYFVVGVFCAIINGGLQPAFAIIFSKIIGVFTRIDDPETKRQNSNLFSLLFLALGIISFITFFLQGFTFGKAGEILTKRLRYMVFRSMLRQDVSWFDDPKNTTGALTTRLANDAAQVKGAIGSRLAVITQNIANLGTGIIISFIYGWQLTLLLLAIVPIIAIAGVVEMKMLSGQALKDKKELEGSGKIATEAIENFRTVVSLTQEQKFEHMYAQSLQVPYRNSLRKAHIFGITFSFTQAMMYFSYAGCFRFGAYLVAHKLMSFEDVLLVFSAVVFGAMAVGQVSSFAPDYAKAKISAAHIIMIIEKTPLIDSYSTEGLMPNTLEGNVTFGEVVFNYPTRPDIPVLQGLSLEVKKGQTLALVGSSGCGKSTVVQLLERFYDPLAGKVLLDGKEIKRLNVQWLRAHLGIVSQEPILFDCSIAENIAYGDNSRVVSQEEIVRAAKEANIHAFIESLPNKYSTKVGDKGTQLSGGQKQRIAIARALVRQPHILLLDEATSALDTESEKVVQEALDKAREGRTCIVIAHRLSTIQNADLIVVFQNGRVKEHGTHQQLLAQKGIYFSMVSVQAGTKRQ
# experimental_protocol: Inhibition of human ABCB1 in expressed in multidrug resistant mouse L5178Y cells assessed as fluorescence activity ratio at 20 uM by rhodamine 123 retention assay relative to parental L5178Y cells
# Format: cell-based
Response field accepts a number only; no unit should be typed.

The cases that follow already have their Ratio on record.
1. CC(C)(C)c1ccc(OCCCN2CCN(c3ncccn3)CC2)cc1 | 1.02
2. CC(C)(C)c1ccc(OCCCCN2CCN(c3cccnc3)CC2)cc1 | 25.33
3. CC(=O)c1ccc(OCCCN2CCN(c3ncccn3)CC2)cc1 | 1.03

### Prompt Recorded Ratio for `CC(=O)c1ccc(OCCCCN2CCN(c3ncccn3)CC2)cc1` , please?
### Response 1.28

### Prompt I am curious: what Ratio value has been reported for `CCC(C)(C)c1ccc(OCCCCN2CCN(c3cnccn3)CC2)cc1` ?
### Response 73.64

### Prompt Would you kindly share the measured Ratio for `CC(=O)c1ccc(OCCCCN2CCN(c3cccnc3)CC2)cc1` ?
### Response 0.99

### Prompt What Ratio value was documented for this compound, `CC(=O)c1ccc(OCCCCN2CCN(c3ccccn3)CC2)cc1` ?
### Response 8.71

### Prompt Quick check: Ratio of `CCC(C)(C)c1ccc(OCCCCN2CCN(c3ncccn3)CC2)cc1` ?
### Response 32.32

### Prompt May I ask what Ratio has been recorded for `CC(=O)c1ccc(OCCCN2CCN(c3ccccn3)CC2)cc1` ?
### Response 0.84

### Prompt Please look up its Ratio: `CCC(=O)c1ccc(OCCCN2CCN(c3ncccn3)CC2)cc1`
### Response 1.02

### Prompt Look up Ratio: `CC(=O)c1ccc(OCCCN2CCN(c3ccncc3)CC2)cc1`
### Response 1.61

###

Reported Ratio values follow for various compounds
# tgt: UniProt P08183
# experimental_protocol: Inhibition of human ABCB1 in expressed in multidrug resistant mouse L5178Y cells assessed as fluorescence activity ratio at 2 uM by rhodamine 123 retention assay relative to parental L5178Y cells
# Assay type: cell-based

Example compounds with recorded Ratio:
1) CC(=O)c1ccc(OCCCN2CCN(c3ncccn3)CC2)cc1 | 1.06
2) CC(=O)c1ccc(OCCCCN2CCN(c3ccccn3)CC2)cc1 | 0.98
3) CCC(=O)c1ccc(OCCCN2CCN(c3ncccn3)CC2)cc1 | 0.92
4) CCC(C)(C)c1ccc(OCCCCN2CCN(c3cccnc3)CC2)cc1 | 5.95
5) CC(C)(C)c1ccc(OCCCCN2CCN(c3ncccn3)CC2)cc1 | 2.7

### Prompt May I ask what Ratio has been recorded for `CC(C)(C)c1ccc(OCCCN2CCN(c3ncccn3)CC2)cc1` ?
### Response 0.93

### Prompt Look up Ratio: `CC(C)(C)c1ccc(OCCCCN2CCN(c3cccnc3)CC2)cc1`
### Response 2.81

### Prompt Fill in: Ratio of `CCC(C)(C)c1ccc(OCCCCN2CCN(c3ncccn3)CC2)cc1` is ___
### Response 2.17

### Prompt Returns the measured Ratio for the input compound. Input: `CC(=O)c1ccc(OCCCCN2CCN(c3ncccn3)CC2)cc1`
### Response 0.86

### Prompt Could you share which Ratio value was measured for `CC(C)(C)c1ccc(OCCCCN2CCN(c3ccccn3)CC2)cc1` ?
### Response 1.74

### Prompt Given the entry `CC(=O)c1ccc(OCCCCN2CCN(c3cccnc3)CC2)cc1` , report its measured Ratio.
### Response 0.84

### Prompt Consider the compound shown here: `CC(=O)c1ccc(OCCCN2CCN(c3ccncc3)CC2)cc1` What is its recorded Ratio?
### Response 1.29

### Prompt Please look up its Ratio: `CCC(C)(C)c1ccc(OCCCCN2CCN(c3cnccn3)CC2)cc1`
### Response 1.85

### Prompt Give the measured Ratio of `CCC(=O)c1ccc(OCCCN2CCN(c3cnccn3)CC2)cc1` .
### Response 0.83

### Prompt # lookup: Ratio of `CC(C)(C)c1ccc(OCCCCN2CCN(c3cnccn3)CC2)cc1`
### Response 1.36

### Prompt Item `CC(=O)c1ccc(OCCCN2CCN(c3ccccn3)CC2)cc1` has what recorded Ratio?
### Response 0.92
